Origin of the recorded values: PubChem BioAssay (NCI)

test system: UACC-62 melanoma; assay: NCI-60 one-dose screen, 48 h (100 = growth as untreated, 0 = no growth, -100 = all killed); settings: 10 µM unless noted
The panel holds about 83,000 compounds, 20% with a hit somewhere; the sample as a whole holds those more often.
I would appreciate it if you labelled entries 1 (yes) when growth is 70% or higher, otherwise 0 (no).

- MOLECULE: "C=C1C(=O)O[C@H]2[C@H]1CC/C(Cn1cc(Cc3c[nH]c4ccccc34)nn1)=C\\CC[C@@]1(C)O[C@@H]21"
  TARGET_UNDER_TEST: "UACC-62 melanoma"
  ASSIGNED_CLASS: "0 (no)"

Can "C[C@]12C[C@@H](c3ccoc3)OC(=O)[C@@H]1CC[C@]1(C)[C@@H]2CC[C@@H](O)[C@]1(C)O" be said to have growth at or above 70%?
1 (yes)

Can "C/C(=C(/c1ccc(O)cc1)c1ccc(OCCN(C)C)cc1)c1ccccc1" be said to have growth at or above 70%?
0 (no)
